# Assayed Target: KHK-C expressed in NRK-52E cells (Homo sapiens (Human), UniProt P50053)
# Sequence (P50053 whole entry): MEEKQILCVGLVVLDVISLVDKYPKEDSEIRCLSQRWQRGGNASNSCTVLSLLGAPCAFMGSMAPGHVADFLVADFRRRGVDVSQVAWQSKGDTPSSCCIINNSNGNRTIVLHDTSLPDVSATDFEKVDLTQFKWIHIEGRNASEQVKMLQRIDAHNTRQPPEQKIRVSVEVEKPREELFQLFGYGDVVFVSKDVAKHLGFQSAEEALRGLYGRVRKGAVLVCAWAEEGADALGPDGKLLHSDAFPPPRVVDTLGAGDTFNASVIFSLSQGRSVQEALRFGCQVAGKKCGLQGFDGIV
# Experimental Details: KHK-C Cell-based Assay (EC50), NRK CTG, fructose-mediated ATP-depletion
# pEC50 values compiled below
pEC50 is a log-scale quantity: -log10 of the concentration expressed in molar.

molecule=C[C@H]1CCN1c1nc(-c2ccc(C3(N)COC3)cc2)c2c(n1)C(F)(F)CC2 numeric_readout=8.70
molecule=NC(=O)c1ccc(-c2nc(N3CC[C@@H]3C(=O)O)nc3c2CCC3)cc1 numeric_readout=5.56
molecule=C[C@H]1CCN1c1nc2c(c(-c3ccc4c(c3)C(=O)N(C)C4)n1)CCC2 numeric_readout=7.58

Reading of pEC50 for C[C@H]1CCN1c1nc2c(c(-c3ccc4c(c3)[C@]3(C[C@@H]3C#N)C(=O)N4)n1)CCC2 (mixture of isomers) with KHK-C expressed in NRK-52E cells (Homo sapiens (Human), UniProt P50053): 6.32

Lab entry: KHK-C expressed in NRK-52E cells (Homo sapiens (Human), UniProt P50053) assay, molecule C[C@H]1CCN1c1nc2c(c(-c3nccn3C)n1)CCC2 , pEC50 = 6.11

KHK-C expressed in NRK-52E cells (Homo sapiens (Human), UniProt P50053) data for C[C@H]1CCN1c1nc2c(c(-c3ccc(C4(O)COC4)cc3)n1)CCC2 ; its pEC50: 6.65

Item: C[C@H]1[C@H](O)CN1c1nc(-c2ccc(S(C)(=N)=O)cc2)c2c(n1)C(F)(F)CC2 (some centres unmarked) | System: KHK-C expressed in NRK-52E cells (Homo sapiens (Human), UniProt P50053) | pEC50: 6.59

Form field, pEC50 with KHK-C expressed in NRK-52E cells (Homo sapiens (Human), UniProt P50053), item NC(=O)c1ccc(-c2nc(N3CCCC3)nc3c2CCC3)cc1 : 5.69

Lab note: molecule C[C@H]1CCN1c1nc2c(c(-c3ccc4c(=O)[nH]ncc4c3)n1)CCC2 tested on KHK-C expressed in NRK-52E cells (Homo sapiens (Human), UniProt P50053); recorded pEC50 was 7.40

GET /values?item= C[C@H]1CCN1c1nc2c(c(-c3cccc([C@H]4C[C@@H]4c4nn[nH]n4)c3)n1)CCC2 (relative stereo) &system= KHK-C expressed in NRK-52E cells (Homo sapiens (Human), UniProt P50053) returns pEC50: 5.67

* * *

Reported values: pIC50 for human OATP1B1 (Homo sapiens (Human), UniProt Q9Y6L6), one per item.
Please treat pIC50 as minus the base-10 logarithm of the molar concentration.

// below: answered compounds
compound=CCOc1cc(-c2nc(N3C[C@@H](O)[C@@H]3C)nc3c2CCC3(F)F)ccc1C(N)=O property=pIC50 numeric_readout=6.05
compound=C[C@H]1[C@H](O)CN1c1nc2c(c(-c3cccc(S(N)(=O)=O)c3)n1)CCC2 property=pIC50 numeric_readout=5.25

Consider C[C@H]1CCN1c1nc2c(c(-c3ccc4c(=O)[nH]ccc4c3)n1)CCC2 . Its measured pIC50 is 7.41

The compound C[C@H]1[C@H](O)CN1c1nc2c(c(-c3cccc(CNS(C)(=O)=O)c3)n1)CCC2 showed pIC50 equal to 5.90

Documented pIC50 of CS(=O)(=O)NC1COc2cc(-c3nc(N4CC[C@@H]4C#N)nc4c3CCC4(F)F)ccc21 (some centres unmarked) : 5.92

Please fill in: pIC50 reported for C[C@H]1CCN1c1nc2c(c(-c3ccc4c(=O)n(C)ccc4c3)n1)CCC2 = 6.28
